Reference source: patent US20110245249A1

- protocolDescription: logP by HPLC on reversed-phase columns (EEC Directive 79/831 Annex V.A8)
- Format: physicochemical
- conditions: pH 2.7
Record form. Attribute: log p [b]. Fill in for each entry.

In: Recorded log p [b] for FC(F)CNc1nc(Nc2cccc(C3OCCO3)c2)ncc1Cl , please?
Out: 1.88[b]

In: Further, for Fc1cnc(Nc2cccc(C3OCCO3)c2)nc1NC1CC1 ?
Out: 1.60[b]

In: And then CC1COC(c2cccc(Nc3ncc(Cl)c(NC4CC4)n3)c2)O1 (centres unmarked) , what is it?
Out: 1.9[b]

In: Quick one: Cc1cnc(Nc2cccc(C3OCCCO3)c2)nc1NC1CC1
Out: 1.28[b]

In: Item: C#CCNc1nc(Nc2cccc(C3OCCCO3)c2)ncc1Cl
Out: 1.67[b]
